# Tested on: Kidney
# assay-overview: Biodistribution in ddY mouse kidney at 2 uCi, iv after 10 mins
# Type: ADME, organism-based
# condition-parameters: in vivo
metric-name: Drug uptake (% ID/g)

Worked examples, 2 molecules total:
structure-string	unit-abbrev	observed-measurement
CNc1ccc(-c2cc(=O)c3cc([125I])ccc3o2)cc1	% ID/g	5.21
CN(C)c1ccc(-c2cc(=O)c3cc([125I])ccc3o2)cc1	% ID/g	4.31

A: O=c1cc(-c2ccc(O)cc2)oc2ccc([125I])cc12
B: COc1ccc(-c2cc(=O)c3cc([125I])ccc3o2)cc1
Ask: Please compare: A and B . Report which one has the smaller Drug uptake value. Give the chosen item's label as your response.
Result: B
(B: 6.3 % ID/g, A: 15.11 % ID/g)

* * *

# System: Spleen
# assay-overview: Biodistribution in ddY mouse spleen at 2 uCi, iv after 30 mins
# Assay type: ADME, organism-based
# condition-parameters: in vivo, 0.5 h
metric-name: Drug uptake (% ID/g)

structure-string	experimental-system	unit-abbrev	Drug uptake
O=c1cc(-c2ccc(O)cc2)oc2ccc([125I])cc12	Spleen	% ID/g	0.56
CNc1ccc(-c2cc(=O)c3cc([125I])ccc3o2)cc1	Spleen	% ID/g	1.76

P: COc1ccc(-c2cc(=O)c3cc([125I])ccc3o2)cc1
Q: CN(C)c1ccc(-c2cc(=O)c3cc([125I])ccc3o2)cc1
Ask: Select one: P or Q . Criterion: greater recorded Drug uptake. Give the label of your selection.
Result: Q
(Q: 1.58 % ID/g, P: 0.55 % ID/g)

* * *

# Tested on: Spleen
# assay-overview: Biodistribution in ddY mouse spleen at 2 uCi, iv after 2 mins
# Format: ADME, organism-based
# condition-parameters: in vivo
metric-name: Drug uptake (% ID/g)

structure-string	experimental-system	Drug uptake [% ID/g]
COc1ccc(-c2cc(=O)c3cc([125I])ccc3o2)cc1	Spleen	2.7
CNc1ccc(-c2cc(=O)c3cc([125I])ccc3o2)cc1	Spleen	2.57

P: CN(C)c1ccc(-c2cc(=O)c3cc([125I])ccc3o2)cc1
Q: O=c1cc(-c2ccc(O)cc2)oc2ccc([125I])cc12
Ask: In terms of reported Drug uptake, does P or Q have the smaller number? Reply with the label of the item you choose.
Result: P
(P: 2.72 % ID/g, Q: 3.92 % ID/g)

* * *

# System: Heart
# assay-overview: Biodistribution in ddY mouse heart at 2 uCi, iv after 10 mins
# Type: ADME, organism-based
# condition-parameters: in vivo
metric-name: Drug uptake (% ID/g)

structure-string	experimental-system	unit-abbrev	Drug uptake
CNc1ccc(-c2cc(=O)c3cc([125I])ccc3o2)cc1	Heart	% ID/g	2.66
CN(C)c1ccc(-c2cc(=O)c3cc([125I])ccc3o2)cc1	Heart	% ID/g	2.47
O=c1cc(-c2ccc(O)cc2)oc2ccc([125I])cc12	Heart	% ID/g	1.6
COc1ccc(-c2cc(=O)c3cc([125I])ccc3o2)cc1	Heart	% ID/g	2.25

* * *

# Tested on: Kidney
# assay-overview: Biodistribution in ddY mouse kidney at 2 uCi, iv after 60 mins
# Assay type: ADME, organism-based
# condition-parameters: in vivo, 1 h
metric-name: Drug uptake (% ID/g)

Recorded results for 2 molecules are shown here.
structure-string	Drug uptake (% ID/g)
CNc1ccc(-c2cc(=O)c3cc([125I])ccc3o2)cc1	3.05
O=c1cc(-c2ccc(O)cc2)oc2ccc([125I])cc12	1.66

1: COc1ccc(-c2cc(=O)c3cc([125I])ccc3o2)cc1
2: CN(C)c1ccc(-c2cc(=O)c3cc([125I])ccc3o2)cc1
Ask: Hi, I'm comparing two records. Which one has the lower Drug uptake, 1 or 2 ? Returns: label corresponding to the selected item.
Result: 1
